- System: Escherichia coli NIHJ
READOUT KIND: MIC (µg/mL)
One number for each entry, in µg/mL.

Below are worked cases with known answers.
## Task Given the compound C[C@H]1O[C@H](O[C@H]2[C@H](O)[C@@H](O)[C@@H](O)[C@H](O)[C@@H]2O)[C@@H](N)C[C@@H]1NC(=N)NCCCN [R1 =--(CH2)3 NH2, R2 =H] , what is its reported MIC?
## Result 0.39

## Task Given the compound C[C@H]1O[C@H](O[C@H]2[C@H](O)[C@@H](O)[C@@H](O)[C@H](O)[C@@H]2O)[C@@H](N)C[C@@H]1NC(=N)NCCCCN [Compound 4] , what is its reported MIC?
## Result 12.5

Further cases:
## Task Given the compound C[C@H]1O[C@H](O[C@H]2[C@H](O)[C@@H](O)[C@@H](O)[C@H](O)[C@@H]2O)[C@@H](N)C[C@@H]1NC(=N)C(=O)O [Kasugamycin] , what is its reported MIC?
## Result 100
